FYI, the data here is from patent US9409892B2.

# TARGET DESC: PHD2 (EGLN1) (Homo sapiens (Human), UniProt Q9GZT9)
# Sequence (Q9GZT9 whole entry): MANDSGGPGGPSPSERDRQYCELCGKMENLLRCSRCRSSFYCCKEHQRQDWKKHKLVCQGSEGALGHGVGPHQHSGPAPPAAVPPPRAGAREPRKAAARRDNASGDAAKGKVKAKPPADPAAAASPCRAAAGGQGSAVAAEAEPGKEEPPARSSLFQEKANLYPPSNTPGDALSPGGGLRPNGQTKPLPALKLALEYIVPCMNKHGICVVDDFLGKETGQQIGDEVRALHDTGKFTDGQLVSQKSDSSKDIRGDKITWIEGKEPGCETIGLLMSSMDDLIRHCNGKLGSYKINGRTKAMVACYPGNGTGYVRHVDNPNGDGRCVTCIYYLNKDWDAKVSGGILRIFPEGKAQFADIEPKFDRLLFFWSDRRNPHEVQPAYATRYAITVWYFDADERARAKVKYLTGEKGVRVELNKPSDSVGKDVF
# TEST: HIF-PH assay (14CO2 capture), PHD2 enzyme inhibition
# Format: biochemical
# SETTINGS: Table 1; individual measurement; read-out: IC50 (μM) PHD2
ENDPOINT LABEL: IC50 (µM)

1) N#Cc1nc(C(=O)NCC(F)(F)C(=O)O)c(O)c2ccc(Oc3ccccc3)cc12 [Compound 65] | 5.99
2) N#Cc1nc(C(=O)NCCCCC(=O)O)c(O)c2cc(Oc3ccccc3)ccc12 [Compound 128] | 65.2
3) CC(C)(CNC(=O)c1nc(C#N)c2cc(Oc3ccc(Cl)cc3)ccc2c1O)C(=O)O [Compound 40] | 4.01
4) CO[C@@H](CCNC(=O)c1nc(C#N)c2cc(Oc3ccccc3)ccc2c1O)C(=O)O [Compound 94] | 2.18
5) CC(C)(CNC(=O)c1c(O)c2ccc(Oc3ccccc3)cc2c(C#N)[n+]1[O-])C(=O)O [Compound 157] | 200
6) O=C(O)CCNC(=O)c1ncc2cc(Oc3cccnc3)ccc2c1O [Compound 24] | 23.3
7) CC(C)(CC(=O)O)NC(=O)c1nc(C#N)c2cc(Oc3ccc(F)cc3)ccc2c1O [Compound 102] | 8.5
8) N#Cc1nc(C(=O)N[C@@H](CO)CC(=O)O)c(O)c2ccc(Oc3ccccc3)cc12 [Compound 37] | 159
